# system name: M^Pro-eGFP fusion protein transiently expressed in 293T cells (Severe acute respiratory syndrome coronavirus 2, UniProt P0DTD1)
# condition details: read-out: Cellular EC50
pEC50: −log10 of the molar value.
Rule: pEC50 of 6 or more gives Yes; anything lower gives No.

Some solved cases for reference:
| molecule | assigned class |
| --- | --- |
| CC1(C)[C@@H]2[C@@H](C(=O)N[C@H](C=O)C[C@@H]3CCNC3=O)N(C(=O)C(c3ccc(Cl)cc3)c3ccc(Cl)cc3)C[C@@H]21 [MPI96] | No |
| CC(C)(C)C[C@H](NC(=O)N1CC[C@@H]1c1ccccc1)C(=O)N[C@H](C=O)C[C@@H]1CCNC1=O [MPI105] | No |
| CC1(C)[C@@H]2[C@@H](C(=O)N[C@H](C=O)C[C@@H]3CCNC3=O)N(C(=O)OCc3cccnc3)C[C@@H]21 [MPI102] | No |
| CC1(C)[C@@H]2[C@@H](C(=O)N[C@H](C=O)C[C@@H]3CCNC3=O)N(C(=O)[C@H](CC3CCCCC3)NC(=O)OCc3ccccc3)C[C@@H]21 [MPI100] | Yes |

In the following, a different molecule is considered.
Has CC1(C)[C@@H]2[C@@H](C(=O)N[C@H](C#N)C[C@@H]3CCNC3=O)N(C(=O)[C@@H](NC(=O)C(F)(F)F)c3ccc(Cl)c(Cl)c3)C[C@@H]21 [MPI108] a recorded pEC50 greater than or equal to 6?
No

----------
# system name: SARS-CoV-2 M^Pro (Severe acute respiratory syndrome coronavirus 2, UniProt P0DTD1)
# method notes: In vitro M^Pro inhibition potency (enzymatic IC50, fluorogenic substrate Sub3)
# Format: biochemical
# condition details: 20 nM M^Pro, 10 μM Sub3, 30 min preincubation, pH 7.6
Measured IC50 of individual entries
// return numeric value only (unit: µM, not printed)

Consider the following illustrative entries.
| molecule | IC50 (µM) |
| --- | --- |
| CC1(C)[C@@H]2[C@@H](C(=O)N[C@H](C=O)C[C@@H]3CCNC3=O)N(C(=O)[C@H](Cc3ccccc3)NC(=O)OCc3ccccc3)C[C@@H]21 [MPI99] | 0.27 |
| CC(C)(C)C[C@H](NC(=O)N1CC[C@@H]1c1ccccc1)C(=O)N[C@H](C=O)C[C@@H]1CCNC1=O [MPI105] | 0.039 |
| CC(C)(C)C[C@H](NC(=O)OCc1cccnc1)C(=O)N[C@H](C=O)C[C@@H]1CCNC1=O [MPI101] | 0.02 |

Look up IC50 for this molecule: CC(C)(C)C[C@H](NC(=O)[C@@H]1CC[C@@H]1c1ccccc1)C(=O)N[C@H](C=O)C[C@@H]1CCNC1=O [MPI104]
0.079

And what about the molecule CC1(C)[C@@H]2[C@@H](C(=O)N[C@H](C=O)C[C@@H]3CCNC3=O)N(C(=O)OCc3cccnc3)C[C@@H]21 [MPI102] ?
0.028

CC1(C)[C@@H]2[C@@H](C(=O)N[C@H](C#N)C[C@@H]3CCNC3=O)N(C(=O)OCc3cccnc3)C[C@@H]21 [MPI103] , same question.
0.028

----------
# EC50 per entry
# system name: M^Pro-eGFP fusion protein transiently expressed in 293T cells (Severe acute respiratory syndrome coronavirus 2, UniProt P0DTD1)
# condition details: read-out: Cellular EC50

Given the entry `CC1(C)[C@@H]2[C@@H](C(=O)N[C@H](C=O)C[C@@H]3CCNC3=O)N(C(=O)C(Oc3ccc(Cl)cc3)Oc3ccc(Cl)cc3)C[C@@H]21` , report its measured EC50.
0.49 µM

Same again, this time with `CC1(C)[C@@H]2[C@@H](C(=O)N[C@H](C#N)C[C@@H]3CCNC3=O)N(C(=O)[C@@H](NC(=O)C(F)(F)F)c3ccc(Cl)cc3)C[C@@H]21`
> 5 µM

Another molecule to look at: `CC(C)(C)C[C@H](NC(=O)OCc1cccnc1)C(=O)N[C@H](C=O)C[C@@H]1CCNC1=O`
> 5 µM

Now this one: `CC(C)(C)C[C@H](NC(=O)[C@@H]1CC[C@@H]1c1ccccc1)C(=O)N[C@H](C=O)C[C@@H]1CCNC1=O`
> 5 µM

Next record, please: `CC1(C)[C@@H]2[C@@H](C(=O)N[C@H](C=O)C[C@@H]3CCNC3=O)N(C(=O)[C@H](Cc3ccccc3)NC(=O)OCc3ccccc3)C[C@@H]21`
> 5 µM

Entry `CC1(C)[C@@H]2[C@@H](C(=O)N[C@H](C#N)C[C@@H]3CCNC3=O)N(C(=O)OCc3cccnc3)C[C@@H]21` please
> 5 µM

----------
# EC50 per record follows
# system name: M^Pro-eGFP fusion protein transiently expressed in 293T cells (Severe acute respiratory syndrome coronavirus 2, UniProt P0DTD1)
# condition details: read-out: Cellular EC50
Number in nM, nothing else.

Worked examples, 2 molecules total:
| cpd smiles | numeric result |
| --- | --- |
| CC1(C)[C@@H]2[C@@H](C(=O)N[C@H](C=O)C[C@@H]3CCNC3=O)N(C(=O)OC(c3ccccc3)c3ccccc3)C[C@@H]21 | 900 |
| CC1(C)[C@@H]2[C@@H](C(=O)N[C@H](C=O)C[C@@H]3CCNC3=O)N(C(=O)N(c3ccc(Cl)cc3)c3ccc(Cl)cc3)C[C@@H]21 | 1100 |

// next entry
Item `CC1(C)[C@@H]2[C@@H](C(=O)N[C@H](C=O)C[C@@H]3CCNC3=O)N(C(=O)OC(c3ccc(F)cc3)c3ccc(F)cc3)C[C@@H]21` has what recorded EC50?
910
